- Tested on: CCRF-CEM leukemia
- method: NCI-60 one-dose screen, 48 h
- condition description: 10 µM
This is part of a sample that, as a whole, favours compounds with a hit. Of some 83,000 tested, about 20% had one in any assay. Active and inactive are the calls of the source. Rule for the calls: active = growth percent below 10; inactive = the rest.
Hello, when you answer, please use one of the following outcomes: active, inactive

                                   compound  group_label
0  COc1cc(Cl)cc(-c2nn(-c3cccc(NC(=O)Nc4ccc(Cl)c(C(F)(F)F)c4)c3)cc2-c2ccncc2)c1       active
1  Clc1ccc2c(NCCCNc3nccc(Nc4ccc(Br)cc4)n3)ccnc2c1       active
2  CCN1CCCC1CNC(=O)c1ncc(-c2ccc(C(F)(F)F)cc2)c(NC2CCCCCC2)n1 (stereo unspecified)     inactive
3  O=C1/C(=C/c2ccc(Cl)cc2)SC(=Nc2ccc(Cl)cc2)N1Cc1nc2ccccc2[nH]1     inactive
4            Nc1ccc2c(c1)Cc1cc(N)c(Br)cc1-2     inactive

Field: outcome | Entry: Cc1cc(=O)[nH]c(N/N=C/c2ccccc2O)n1
inactive

Field: outcome | Entry: CN(C)CCN1C(=O)c2cccc3cc(N)cc(c23)C1=O
inactive

Field: outcome | Entry: CSc1nc(=O)n(Cc2ccc(F)cc2)c(=O)n1Cc1ccc(C)cc1
inactive

Field: outcome | Entry: Cc1cccc(C)c1NC(=O)c1sc2nc3c(cc2c1N)C(=O)CCC3
inactive

====

For each record, write down the corresponding growth.
- Test system: 786-0 renal
- method: NCI-60 one-dose screen, 48 h (100 = growth as untreated, 0 = no growth, -100 = all killed)
- condition description: 10 µM
- Protocol: Cells are grown in 96 well plates and exposed to the test compound for 48 hours. Compounds are tested at a single concentration, which is 10^-5 M for most compounds. The reported endpoint is percent growth (GI% or GIPRCNT), where numbers from 0 - 100% represent growth inhibition, and numbers from -100% - 0 represent cell death. For example, a value of 40 represents 60% growth inhibition. A value of 0 means no net growth occurred over the course of the experiment. […]
This is part of a sample that, as a whole, favours compounds with a hit. Of some 83,000 tested, about 20% had one in any assay.
Answers are plain numbers, in %.

See these solved cases before continuing.
                                   compound  parameter   val
0  COc1cc(Cl)cc(-c2nn(-c3cccc(NC(=O)Nc4ccc(Cl)c(Cl)c4)c3)cc2-c2ccncc2)c1     growth  19.6
1    CCCCN(CCCC)c1cc(C(=O)CCCCCN)c2ccccc2n1     growth  38.8
2          CC(=O)/C(=C/c1ccccc1)C(=O)CC(C)C     growth  95.9
3  CC(=O)OCc1cc(-c2nc3ccccc3[nH]c2=O)nn1-c1ccc(Cl)cc1     growth  96.4
4  CCN(CC)CCC(CNc1c(C)cnc2cc(Cl)ccc12)c1ccc(Cl)c(Cl)c1 (stereo not given)     growth  60.2
5  COc1cc(/C=C2\CCCC3=C2N=C2SC=NN2C3c2cc(OC)c(OC)c(OC)c2)cc(OC)c1OC (stereo not given)     growth    32
6              ClCCOCCn1cnc2c(Cl)nc(Cl)nc21     growth  87.6
7  Cn1c(N)c(N=Nc2ccc(S(=O)(=O)Nc3nccs3)cc2)c(=O)n(C)c1=O     growth  98.1

Please look at the items below and tell me growth for each one, in order.
1. CCOC1(OCC)OC(c2ccccc2)=C(C#N)C(/C=C\c2ccccc2)C1(OCC)OCC (stereo not given)
2. CCN(CC)CCCC(C)Nc1nc(-c2ccc(OC)cc2)nc2cc(Cl)ccc12 (stereo not given)

87.4
65.5

====

- Tested on: OVCAR-3 ovarian
- method: NCI-60 one-dose screen, 48 h (100 = growth as untreated, 0 = no growth, -100 = all killed)
- condition description: 10 µM
About 83,000 compounds went through this panel and 20% of them were active in at least one assay; those are over-represented in the sample as a whole. Activity calls are given as the source filed them. How the source made its calls: active means growth percent below 10; inactive means the rest.
For each record, write down the corresponding growth.

              query_smiles              val
0  CN(C)CCS(=O)(=O)CCN(C)C  110% (inactive)

Please look at the items below and tell me growth for each one, in order.
1. CCN(CC)CCOc1nc2cc(OC)c(OC)cc2c2c1-c1ccc(OC)cc1C2=O
2. O=C(Nc1ccncc1)C(=O)c1cn(S(=O)(=O)c2cccc3ccccc23)c2ccccc12
3. CCN1Cc2c(/C=C/c3ccccc3)nc3ccc(OC)cc3c2N(c2cccc(Cl)c2)C1
4. C[C@@H]1C=C2C(=O)O[C@@H]3CC[C@H](C1)[C@]23O

1. 80% (inactive)
2. 88.2% (inactive)
3. 74.7% (inactive)
4. 66.9% (inactive)

====

- Tested on: RXF 393 renal
- method: NCI-60 one-dose screen, 48 h (100 = growth as untreated, 0 = no growth, -100 = all killed)
- condition description: 10 µM
Compounds without any hit were thinned out: in the full panel of roughly 83,000, 20% have a hit.
parameter: growth (%)
Numbers only, in %.

See these solved cases before continuing.
compound	parameter	u	val
COc1ccc(S(=O)(=O)NCCCNc2nccc(-c3c(-c4ccc(F)cc4)nc4sccn34)n2)cc1	growth	%	68.1
COc1ccc(-c2nc(-c3nc4cc(Cl)c(Cl)cc4[nH]3)c3ccccn23)cc1	growth	%	-39.4
O=C(/C=C/c1cc2ccccc2[nH]c1=O)c1ccc2c(c1)OCO2	growth	%	112
c1ccc2c(c1)oc1c3cccnc3ccc21	growth	%	94.4
CN(C)CCN1C(=O)c2cccc3cc(N)cc(c23)C1=O	growth	%	18.3
C=C(NC(=O)C(=C)NC(=O)c1csc(C2=NC3c4csc(n4)C4NC(=O)c5csc(n5)C(C(C)(O)C(C)O)NC(=O)C5CSC(=N5)/C(=C/C)NC(=O)C(C(C)O)NC(=O)c5csc(n5)C3(CC2)NC(=O)C(C)NC(=O)C(=C)NC(=O)C(=C)NC(=O)C(C(C)C)NC2C=Cc3c(C(C)O)cc(nc3C2O)C(=O)OC4C)n1)C(N)=O (stereo not drawn)	growth	%	16.9
CCc1ccc2c(c1)N(CCO)C1=C(C(=O)OC1)C2c1cc(OC)c(OC)c(OC)c1 (stereo not drawn)	growth	%	53.4

Please look at the following compound next.
Value of growth reported for the compound Cc1cc(=O)n2nnc3c4ccccc4ccc3n12 is 98

====

- Tested on: BT-549 breast
- method: NCI-60 one-dose screen, 48 h
- condition description: 10 µM
The panel holds about 83,000 compounds, 20% with a hit somewhere; the sample as a whole holds those more often. Active and inactive are the calls of the source. The calls were made as follows: active = growth percent below 10; inactive = the rest.
Hello, when you answer, please use one of the following outcomes: TRUE for active, FALSE for inactive

Field: outcome | Entry: C[C@]12CC[C@@H]3c4ccc(O)cc4C[C@@H](O)[C@H]3[C@@H]1CC[C@@H]2O
FALSE

Field: outcome | Entry: CN(C)CCCn1c(=O)c2ccccc2c2cnc3[nH]ccc3c21
FALSE

Field: outcome | Entry: Cc1cc(Nc2ccc(Cl)cc2)nc(NCCCNc2ccnc3cc(Cl)ccc23)n1
TRUE

====

- Tested on: RXF 393 renal
- method: NCI-60 one-dose screen, 48 h
- condition description: 10 µM
About 83,000 compounds went through this panel and 20% of them were active in at least one assay; those are over-represented in the sample as a whole. Active and inactive are the calls of the source. The calls were made as follows: active = growth percent below 10; inactive = the rest.
Hello, when you answer, please use one of the following outcomes: active, inactive

Field: outcome | Entry: CCOC(=O)c1ccoc1
inactive

====

- Tested on: PC-3 prostate
- method: NCI-60 one-dose screen, 48 h (100 = growth as untreated, 0 = no growth, -100 = all killed)
- condition description: 10 µM
The panel holds about 83,000 compounds, 20% with a hit somewhere; the sample as a whole holds those more often.
Rule for this label: Criterion met means growth is less than 90%; Criterion not met means growth is at least 90%.

Look over these answered cases.
                                   molecule        group_label
0  Cn1c(C(N)=O)cc2c1-c1nc(Nc3ccccc3)ncc1CCC2      Criterion met
1  O=C(Nc1ccncc1)C(=O)c1cn(S(=O)(=O)c2cccc(Cl)c2)c2ccccc12      Criterion met
2              Clc1ccccc1N=Cc1ccc2c(c1)OCO2  Criterion not met
3               C[N+](C)(C)c1ncnc2nc[nH]c12  Criterion not met

Consider O=C1NC(=O)N(Cc2ccccc2)CC1Br (stereo unspecified) . Does its growth lie strictly below 90%?
Criterion met

====

- System: EKVX NSCLC
- method: NCI-60 one-dose screen, 48 h (100 = growth as untreated, 0 = no growth, -100 = all killed)
- condition description: 10 µM
About 83,000 compounds went through this panel and 20% of them were active in at least one assay; those are over-represented in the sample as a whole.
For each record, write down the corresponding growth.
Answers are plain numbers, in %.

See these solved cases before continuing.
>>> df
                                   molecule  target_under_test  u   val
0              ClCCOCCn1cnc2c(Cl)nc(Cl)nc21         EKVX NSCLC  %  92.4
1  COc1ccc(OC)c(/C=C/c2nc(SC)n(-c3ccc(Cl)cc3)n2)c1         EKVX NSCLC  %  61.4
2  CCCC1(CC(=O)O)OCCc2c1[nH]c1ccccc21 (stereo unspecified)         EKVX NSCLC  %   120
3  Cc1nc2ccccc2c(N)c1-c1cc(C)c2c(C)nc3ccccc3c2n1         EKVX NSCLC  %  68.4
4  O=C(CC(c1ccccc1)N1CCOCC1)c1ccccc1 (stereo unspecified)         EKVX NSCLC  %  89.3

Value of growth reported for the molecule Cc1ccc2oc3nc(C)c(C(=O)NCc4ccccc4)cc3c(=O)c2c1 is 77.1
